# studyTarget: OCT2 (Homo sapiens, UniProt O15244)
# Sequence (O15244 whole entry): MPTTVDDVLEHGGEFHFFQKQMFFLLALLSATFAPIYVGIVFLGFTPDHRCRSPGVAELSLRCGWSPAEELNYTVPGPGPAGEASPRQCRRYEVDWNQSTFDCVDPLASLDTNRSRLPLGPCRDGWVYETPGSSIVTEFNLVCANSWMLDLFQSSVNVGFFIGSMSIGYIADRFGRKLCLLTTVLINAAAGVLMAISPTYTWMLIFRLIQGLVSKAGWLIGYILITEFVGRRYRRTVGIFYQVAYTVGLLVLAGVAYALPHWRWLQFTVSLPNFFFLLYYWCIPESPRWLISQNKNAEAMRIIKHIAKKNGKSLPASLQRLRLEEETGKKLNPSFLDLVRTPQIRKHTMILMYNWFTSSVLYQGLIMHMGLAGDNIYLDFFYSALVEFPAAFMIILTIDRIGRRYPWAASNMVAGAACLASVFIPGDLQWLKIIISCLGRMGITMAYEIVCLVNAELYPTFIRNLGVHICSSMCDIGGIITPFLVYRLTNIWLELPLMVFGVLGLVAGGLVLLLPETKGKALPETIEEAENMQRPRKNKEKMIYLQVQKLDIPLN
# assayRemarks: in vitro
# particulars: human, pH 7.4
observedProperty: inhibition at 2 min, 30 µM
Don't forget the unit after the value.

Provide OCT2 (Homo sapiens, UniProt O15244) inhibition at 2 min, 30 µM reading for C[C@H](Nc1ncnc(N)c1C#N)c1cc2ncc(Cl)n2nc1-c1ccccc1 .
-8.07%

====

# assayRemarks: Single-dose PK in SD rats (IV/PO)
# Design: species or system SD rat
# particulars: both sexes, SD, rat, in vivo, po, 1 mg/kg
observedProperty: AUC(0-inf) (ng·h/mL)
Use ng·h/mL as the unit, but write only the number.

Item C[C@H](Nc1ncnc(N)c1C#N)c1cc2ncc(Cl)n2nc1-c1ccccc1 : provide AUC(0-inf)
1320
